Assay type: in vivo, human
Test parameters: human, plasma, oral

Smiles | Display unit | Vd/F
C=CCn1c(=O)c2cnc(Nc3ccc(N4CCN(C)CC4)cc3)nc2n1-c1cccc(C(C)(C)O)n1 | L | 1500
